- Test system: trypsin in human serum
- test.name: stability towards proteolysis by trypsin in human serum
- Type: in vitro ADME
- run.parameters: human serum, 37° C.
Ends that are not written are not given here.
outcome.measure: Half-Life Time (t/2) (min)
Give the quantity in min, number only.

[Q] Please report the measured Half-Life Time (t/2) for IKFLKFLKFLK [Peptide VIII]
[A] 7

[Q] Please report the measured Half-Life Time (t/2) for RYVRYVRYV [Peptide X]
[A] 35

[Q] Please report the measured Half-Life Time (t/2) for KFLKFLK [Peptide IX]
[A] 10

[Q] Please report the measured Half-Life Time (t/2) for IKTKKFLKKT [Peptide VII]
[A] 50
